Data credit: patent US12377100B2

test_method_notes: Cytotoxicity assay, MRC-5 cells, Cell Titer Glo, 5 days
Format: cell-based, human
condition_summary: human, MRC-5 cells; MRC-5, five days incubation, intracellular ATP; read-out: CC50 MRC5 CTG 5D
readout_label: CC50 at 5 days

Please review the following examples before continuing.
molecule	CC50 at 5 days
CCC[C@@H](CO)Nc1nc(N)nc2cc(F)c(F)cc12 [X, reference compound]	20.9 µM
CCCC[C@H](CO)Nc1nc(N)nc2ccsc12 [Y, reference compound]	0.95 µM
CCCC[C@](C)(CO)Nc1nc(N)nc2cccnc12	40.3 µM

Next item in the queue.
Could you share which CC50 at 5 days value was measured for CCCC[C@](CO)(Nc1nc(N)nc2cccnc12)C(F)(F)F ?
38.8 µM

----------
test_method_notes: Cytotoxicity assay, galactose-adapted PC-3 cells, Cell Titer Glo, 5 days
Type: cell-based
condition_summary: human, galactose-adapted PC-3, five days incubation, intracellular ATP, read-out: CC50 GALPC3 CTG 5D
readout_label: CC50 at 5 days (µM)
Reply numerically in µM, unit not repeated.

Example entries and their recorded answers appear below.
compound	experimental_value
CCCC[C@](C)(CO)Nc1nc(N)nc2cccnc12 [Example 59]	5.2
CCCC[C@H](CO)Nc1nc(N)nc2ccsc12 [Y, reference compound]	0.18
CCCC[C@@](C)(CO)Nc1nc(N)nc2cc(F)cnc12 [Example 64]	1.55

Form field: reported CC50 at 5 days of CCC[C@@H](CO)Nc1nc(N)nc2cc(F)c(F)cc12 [X, reference compound]
6.79

----------
test_method_notes: MT-4 cytotoxicity assay, Cell Titer Glo, 5 days
Type: cell-based, human
condition_summary: human, MT-4 cells; MT-4, five days incubation, intracellular ATP; read-out: CC50 (MT4)
readout_label: CC50 at 5 days (µM)
Field format: number, assumed µM, no unit text.

compound	units	experimental_value
CCCC[C@](C)(CO)Nc1nc(N)nc2cccnc12 [Example 59]	µM	31.4
CCCC[C@](C)(CNC(C)=O)Nc1nc(N)nc2cc(F)cnc12 [Example 101]	µM	50
CCCC[C@@](C)(CO)Nc1nc(N)nc2cc(F)cnc12 [Example 64]	µM	0.79
CCCC[C@](C)(CNC(C)=O)Nc1nc(N)nc2cc(Cl)cnc12 [Example 65]	µM	50
CCCC[C@H](CO)Nc1nc(N)nc2ccsc12 [Y, reference compound]	µM	1.42

# query: CC50 at 5 days of entry CCCC[C@@](C)(Nc1nc(N)nc2cccnc12)C(C)O (single isomer, unassigned) [Example 97]
50

Give the measured CC50 at 5 days of CCC[C@@H](CO)Nc1nc(N)nc2cc(F)c(F)cc12 [X, reference compound] .
53.8

----------
test_method_notes: Cytotoxicity assay, Huh-7 cells, Cell Titer Glo, 5 days
Type: cell-based, human
condition_summary: human, Huh-7 cells; Huh-7, five days incubation, intracellular ATP; read-out: CC50 HUH7 CTG 5D
readout_label: CC50 at 5 days (µM)
Please reply with the bare figure in µM and do not write the unit itself.

# annotated cases, reported CC50 at 5 days shown
compound	CC50 at 5 days (µM)
CCCC[C@H](CO)Nc1nc(N)nc2ccsc12 [Y, reference compound]	2.31
CCCC[C@H](CO)Nc1nc(N)nc2cccnc12	10.7
CCCC[C@](C)(CO)Nc1nc(N)nc2cccnc12	35.4

Could you now consider this next compound?
Consider the compound shown here: CCC[C@@H](CO)Nc1nc(N)nc2cc(F)c(F)cc12 [X, reference compound] What is its recorded CC50 at 5 days?
16.9

----------
test_method_notes: Cytotoxicity assay, galactose-adapted HepG2 cells, Cell Titer Glo, 5 days
Format: cell-based
condition_summary: human, galactose-adapted HepG2, five days incubation, intracellular ATP, read-out: CC50 GALHEPG2 CTG 5D
CC50 at 5 days values, listed per item
Express the result in µM but write the number alone.

Study these solved cases before continuing.
compound	CC50 at 5 days, µM
CCCC[C@](C)(CO)Nc1nc(N)nc2cccnc12	8.88
CCCC[C@](C)(CNC(C)=O)Nc1nc(N)nc2cccnc12	44.4
CCCC[C@](C)(CNC(C)=O)Nc1nc(N)nc2cc(Cl)cnc12	44.4
CCC[C@@H](CO)Nc1nc(N)nc2cc(F)c(F)cc12 [X, reference compound]	7.85

Item CCCC[C@](C)(CNC(C)=O)Nc1nc(N)nc2cc(F)cnc12 has what recorded CC50 at 5 days?
44.4

Reported CC50 at 5 days, compound CCCC[C@H](CNC(C)=O)Nc1nc(N)nc2cccnc12 : ____
44.4

Please give the measured CC50 at 5 days for this compound: CCCC[C@H](CO)Nc1nc(N)nc2ccsc12 [Y, reference compound]
0.19

----------
Tested on: IFNα
test_method_notes: PBMC cytokine profiling assay, IFNα induction
Format: cell-based
condition_summary: human PBMCs, 24 hours incubation
readout_label: log10 AC50 (log10 of the value in µM)
Response schema: value (number) is log10 of AC50 in units of µM.

Worked cases, log10 AC50 given:
compound	log10 AC50
CCCC[C@@H](Nc1nc(N)nc2cccnc12)[C@H](C)O	1.57
CCCCC(Nc1nc(N)nc2cccnc12)C(C)O (stereo not drawn) [Example 103]	1.01
CCCC[C@@](C)(Nc1nc(N)nc2cc(F)cnc12)C(C)O (single isomer, unassigned) [Example 94]	0.34
CCCC[C@@](C)(Nc1nc(N)nc2cccnc12)C(C)O (single isomer, unassigned) [Example 96]	0.45
CCCCC[C@](C)(CO)Nc1nc(N)nc2cc(F)cnc12 [Example 111]	1.30
CCCCC(Nc1nc(N)nc2cccnc12)C(C)O (stereo not drawn) [Example 104]	0.62

Note: attention shifts to another entry.
For the compound CCCC[C@@](C)(Nc1nc(N)nc2cccnc12)C(C)O (single isomer, unassigned) [Example 97] , what log10 AC50 is on record?
1.41
